B1: Azoarcus group I ribozyme (parent)
chain: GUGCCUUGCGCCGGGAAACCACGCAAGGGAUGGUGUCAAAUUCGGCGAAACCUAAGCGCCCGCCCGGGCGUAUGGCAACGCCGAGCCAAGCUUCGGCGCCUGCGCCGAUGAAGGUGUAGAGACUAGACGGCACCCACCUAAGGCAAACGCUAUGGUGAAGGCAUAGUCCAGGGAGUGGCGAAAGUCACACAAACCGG

variants of: B1; assay: reverse-splicing fitness (ratio to wild type); higher = more active; in vitro selection; Mg2+ level not given
METRIC: reverse-splicing fitness
# respond with the number and nothing more

Some solved cases for reference:
MUTATION KEY: C82G A111C A120C C169U U176A
METRIC: reverse-splicing fitness
MEAS VALUE: 0.0183

MUTATION KEY: C82G A111G A145C C169U U176G
METRIC: reverse-splicing fitness
MEAS VALUE: 0.00545

MUTATION KEY: A111U A120U A145U C150G U176G
METRIC: reverse-splicing fitness
MEAS VALUE: 0.0043

### Prompt What does the record list as reverse-splicing fitness for C82A A111C A120C A145C C150U C169U U176G ?
### Response 0.00738

### Prompt Entry A111C A120U A145U : reported reverse-splicing fitness = ?
### Response 0.629

### Prompt For the variant A111G A120C A145C , what reverse-splicing fitness is on record?
### Response 0.653

### Prompt Name the reported reverse-splicing fitness value associated with the variant C82U A111G A120C A145C C169A U176C
### Response 0.00404

### Prompt Item C169G U176A has what recorded reverse-splicing fitness?
### Response 0.0721

### Prompt Look at this variant and give its reported reverse-splicing fitness. A111U A145G C150U C169A U176G
### Response 0.00732

### Prompt Fill in the blank: the reported reverse-splicing fitness of A111U A120G A145C C150G C169U U176C is ____.
### Response 0.0146

Source of measurements: the RNAGym collection of RNA variant scans (doi:10.1093/molbev/msab373)
